# disease controlling index annotations
Tested on: Rhizoctonia solani
Test: Preventive activity against sheath blight of rice plants by submerged application (Experiment 4)
Type: in vivo
Details: rice seedlings (variety Nihonbare), applied to the water in the pots, 100 g per 10 ares, inoculated after 7 days, 5 days; height of the lesions

Record excerpt, results attached:
| COMPOUND | RESULT |
| --- | --- |
| C[C@@H](CN=[N+]=[N-])[C@](O)(Cn1cncn1)c1ccc(Cl)cc1Cl (relative stereo) | 5 |
| O=C(NCC(O)(Cn1cncn1)c1ccc(Cl)cc1Cl)c1ccc(Cl)cc1 (stereo not drawn) [Compound X, reference compound] | 0 |
| CC(N=[N+]=[N-])[C@H](C)[C@](O)(Cn1cncn1)c1ccc(F)cc1F (single isomer, unassigned) [83 (C-4 isomer 1)] | 5 |

Now turn to the next compound.
(Q) Look up disease controlling index for this compound: C[C@@H](N=[N+]=[N-])[C@](O)(Cn1cncn1)c1ccc(Cl)cc1Cl (relative stereo)
(A) 5

Taken from patent EP0332387B1.
